SYSTEM: full-length human GLP-1R with an N-terminal FLAG tag (human, UniProt P43220 24-463)
TEST_SUMMARY: cell-based or functional assay
Starred links: 1 amine or outer side, 2 acyl side, 3 side chain; linkers in the order of their positions; H or OH if unused. Non-standard residues stand in square brackets, D forms with d. Groups on a side chain read outwards from the residue. No end group written: not given here. *: point of attachment. 2OEGgE‑C16DA = O=C(O)CCCCCCCCCCCCCCC(=O)N[C@@H](CCC(=O)NCCOCCOCC(=O)NCCOCCOCC(=O)*)C(=O)O; 2OEGgE = O=C(CC[C@H](N[*:1])C(=O)O)NCCOCCOCC(=O)NCCOCCOCC(=O)[*:2]; C16 diacid = O=C(O)CCCCCCCCCCCCCCC(=O)*; C15 diacid = O=C(O)CCCCCCCCCCCCCC(=O)*; γGlu = O=C(O)[C@H](CCC(=O)[*:2])N[*:1]; NMeY = CN[C@@H](Cc1ccc(O)cc1)C(=O)O; AEEA = NCCOCCOCC(=O)O; Aib = CC(C)(N)C(=O)O
Quick rule for you: Human GLP1R cAMP HEK293T EC50 under 200 nM gets rule met, anything else gets rule not met.

Query: Here's an entry: [NMeY][Aib]EGTFISDYSIALDR[Aib]AQ[Aib]NFVNWLLAQK([OEGgEgE-C15 diacid])PSSGAPPPS-NH2 [Compound 70] . Is its Human GLP1R cAMP HEK293T EC50 below 200 nM?
Response: rule met

Query: Here's an entry: Me-Y[Aib]EGTFISDYSI[Aib]KDR[Aib]AQ[Aib]DFVNWLLAQSPSSGAPPPS-NH2 (not fully specified (residues 1, 14)) [Compound 140] . Is its Human GLP1R cAMP HEK293T EC50 below 200 nM?
Response: rule met

Query: Here's an entry: Me-Y[Aib]EGTFISDYSIAKDR[Aib]AQ[Aib]DFVNWLLAQRPSSGAPPPS-OH (not fully specified (residues 1, 14)) [Compound 146] . Is its Human GLP1R cAMP HEK293T EC50 below 200 nM?
Response: rule met

Query: Here's an entry: Me-Y[Aib]EGTFISDYSI[Aib]K([AEEA-AEEA-γGlu-γGlu-C15 diacid])DR[Aib]AQ[Aib]NFVNWLLAQSPSSGAPPPS-NH2 [Compound 139] . Is its Human GLP1R cAMP HEK293T EC50 below 200 nM?
Response: rule not met

Query: Here's an entry: [NMeY]GEGTFISDYSIAK([2OEGgE-C16 diacid])DRIHQ[Aib]NFVNWLLAQK (not fully specified) [Compound 6] . Is its Human GLP1R cAMP HEK293T EC50 below 200 nM?
Response: rule not met

Query: Here's an entry: [NMeY][Aib]EGTFISDYSIALDR[Aib]AQ[Aib]KFVNWLLAQR-NH2 (not fully specified (residue 21)) [Compound 121] . Is its Human GLP1R cAMP HEK293T EC50 below 200 nM?
Response: rule met

Query: Here's an entry: [NMeY][Aib]EGTFISDYSIALDR[Aib]AQ[Aib]NFVNWLLAQKPSSGAPPPS-OH (not fully specified (residue 30)) [Compound 52] . Is its Human GLP1R cAMP HEK293T EC50 below 200 nM?
Response: rule not met

Query: Here's an entry: Me-Y[Aib]EGTFISDYSIAKDR[Aib]AQ[Aib]NFVNWLLAQSPSSGAPPPS-OH (not fully specified (residues 1, 14)) [Compound 150] . Is its Human GLP1R cAMP HEK293T EC50 below 200 nM?
Response: rule met

Query: Here's an entry: Me-Y[Aib]EGTFISDYSI[Aib]KDR[Aib]AQ[Aib]DFVNWLLAQSG-OH (not fully specified (residues 1, 14)) [Compound 141] . Is its Human GLP1R cAMP HEK293T EC50 below 200 nM?
Response: rule met

Query: Here's an entry: [NMeY][Aib]EGTFISDYSIALDRIHQ[Aib]NFVNWLLK(2OEGgE‑C16DA)QK [Compound 10] . Is its Human GLP1R cAMP HEK293T EC50 below 200 nM?
Response: rule not met

Query: Here's an entry: [NMeY][Aib]EGTFISDYSIAK([G5-γGlu-C15 diacid])DR[Aib]AQ[Aib]DFVNWLLAQRPSSGAPPPS-NH2 [Compound 80] . Is its Human GLP1R cAMP HEK293T EC50 below 200 nM?
Response: rule not met

Query: Here's an entry: [NMeY][Aib]EGTFTSDYSIYK([AEEA-AEEA-γGlu-C15 diacid])DR[Aib]AQ[Aib]NFVNWLLAQRPSSGAPPPS-OH (not fully specified) [Compound 46] . Is its Human GLP1R cAMP HEK293T EC50 below 200 nM?
Response: rule met

Query: Here's an entry: [NMeY][Aib]EGTFISDYSIALDRKHQ[Aib]NFVNWLLAQSPSSGAPPPS-NH2 (not fully specified (residue 17)) [Compound 64] . Is its Human GLP1R cAMP HEK293T EC50 below 200 nM?
Response: rule not met

Query: Here's an entry: [NMeY][Aib]EGTFISDYSIAK([AEEA-γGlu-γGlu-γGlu-C15 diacid])DR[Aib]AQ[Aib]NFVNWLL[Aib]QK-OH (not fully specified) [Compound 38] . Is its Human GLP1R cAMP HEK293T EC50 below 200 nM?
Response: rule not met

Query: Here's an entry: [NMeY][Aib]EGTFISDYSIAK(2OEGgE‑C16DA)DR[Aib]AQQNFVNWLLAQK [Compound 1] . Is its Human GLP1R cAMP HEK293T EC50 below 200 nM?
Response: rule not met

Query: Here's an entry: [NMeY][Aib]EGTFISDYSI[Aib]LDR[Aib]AQ[Aib]DFVNWLLAQK(2OEGgE‑C15DA)PSSGAPPPS-NH2 [Compound 100] . Is its Human GLP1R cAMP HEK293T EC50 below 200 nM?
Response: rule not met

Query: Here's an entry: [NMeY][Aib]EGTFISDYSIAK([G5-γGlu-C15 diacid])DR[Aib]AQ[Aib]DFVNWLLAQRGGGGS-NH2 [Compound 97] . Is its Human GLP1R cAMP HEK293T EC50 below 200 nM?
Response: rule not met

Query: Here's an entry: [NMeY][Aib]EGTFISDYSI[Aib]LDRKAQ[Aib]NFVNWLLAQRPSSGAPPPS-NH2 (not fully specified (residue 17)) [Compound 122] . Is its Human GLP1R cAMP HEK293T EC50 below 200 nM?
Response: rule met
